- measured.on: Serine/threonine-protein kinase PLK1 (Homo sapiens)
- Sequence (P53350 whole entry): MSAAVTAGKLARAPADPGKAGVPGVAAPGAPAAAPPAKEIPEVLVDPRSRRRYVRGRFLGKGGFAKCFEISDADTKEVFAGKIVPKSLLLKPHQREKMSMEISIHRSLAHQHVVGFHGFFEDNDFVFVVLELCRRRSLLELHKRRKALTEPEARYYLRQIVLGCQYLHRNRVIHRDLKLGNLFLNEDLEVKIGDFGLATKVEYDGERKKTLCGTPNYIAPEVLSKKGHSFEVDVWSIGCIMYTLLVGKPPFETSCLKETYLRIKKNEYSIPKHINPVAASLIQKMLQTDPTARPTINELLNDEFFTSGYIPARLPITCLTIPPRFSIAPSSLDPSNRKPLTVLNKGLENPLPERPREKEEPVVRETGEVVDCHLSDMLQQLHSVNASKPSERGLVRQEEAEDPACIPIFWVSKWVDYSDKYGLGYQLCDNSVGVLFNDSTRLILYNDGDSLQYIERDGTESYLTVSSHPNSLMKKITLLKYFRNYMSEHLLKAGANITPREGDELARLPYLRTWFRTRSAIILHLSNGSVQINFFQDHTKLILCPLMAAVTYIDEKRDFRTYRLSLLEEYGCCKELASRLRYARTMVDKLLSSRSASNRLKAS
outcome.measure: IC50 (nM)
Respond numerically; units are nM and should not be typed.

Task: GET /values?readout=IC50&system=Serine/threonine-protein kinase PLK1 (Homo sapiens)&item= C=CCn1c(=O)c2cnc(Nc3ccc(N4CCN(CCCCNc5cccc6c5C(=O)N(C5CCC(=O)NC5=O)C6=O)CC4)cc3)nc2n1-c1cccc(C(C)(C)O)n1 (configuration not stated)
Output: 2970

----------
- assay.method.text: Tmax in ICR mouse at 20 mg/kg, po measured upto 360 mins
- Format: ADME, organism-based
- test.conditions: in vivo
outcome.measure: Tmax
Give me the value, and tack the unit on after it.

Task: Need Tmax, item C=CCn1c(=O)c2cnc(Nc3ccc(N4CCN(C)CC4)cc3)nc2n1-c1cccc(C(C)(C)O)n1
Output: 15 min
